Entries annotated with measured inhibition
- target.or.system: Gag-Pol polyprotein (Human immunodeficiency virus type 1 group M subtype B (isolate HXB2))
- test.protocol: RNase H inhibition, HIV 1 Gag Pol polyprotein, FRET biochemical assay, screening (AID 372)
- run.parameters: HIV-1 RT RNase H, FRET RNA/DNA substrate fluorescence; at 10 µM; stronger effect = higher value
Hit rate of the full screen: of about 100,000 compounds, about 770 (0.77%) were called active. The list comes from a sample in which actives are over-represented; it also holds close analogues and randomly drawn compounds.
Lab book: enter the figure in %, no units written.

**Q:** Fill in the blank: the reported inhibition of Cc1ccc(N2C(=O)c3ccc(-c4nc5ccccc5c(=O)o4)cc3C2=O)c(C)c1 is ____.
**A:** 5

**Q:** Give the measured inhibition of CCCSc1nc2ccccc2c(=O)n1CC1CCCCC1 .
**A:** 1

**Q:** // query inhibition value for entry COc1ccc(OCCOc2c(Cl)cc(/C=C3\SC(=S)NC3=O)cc2OC)cc1
**A:** 47

**Q:** Which inhibition value belongs to COc1cc(/C=C2\SC(=S)NC2=O)ccc1OCCOc1ccccc1Cl ?
**A:** 51

**Q:** Endpoint output: inhibition of CC(C)COc1ccc(/C=C2\SC(=S)NC2=O)c2ccccc12 . Value?
**A:** 51

**Q:** Would you mind telling me what inhibition value was observed for CC(=O)c1ccc(NC(=O)c2ccccc2Cl)cc1 ?
**A:** 2
